- testMethodNotes: AUC (0-4 hr) ug/ml/h
- Format: ADME, cell-free
- Set-up: time < 4 hr; concentration or dose not given beside the values
- measurementContext: plasma
endpointLabel: AUC (µg·h/mL)

Input: For CN[C@H]1CN(c2cc3c(cc2F)c(=O)c(C(=O)O)cn3C2CC2)[C@@H]1C , write its AUC.
Output: 10.3

Input: For CC[C@H]1[C@@H](N)CN1c1c(F)cc2c(=O)c(C(=O)O)cn(C3CC3)c2c1F , write its AUC.
Output: 14.7

Input: For CC[C@H]1[C@@H](N)CN1c1cc2c(cc1F)c(=O)c(C(=O)O)cn2C1CC1 , write its AUC.
Output: 3.6

Input: For C[C@@H]1[C@@H](N(C)C)CN1c1cc2c(cc1F)c(=O)c(C(=O)O)cn2C1CC1 , write its AUC.
Output: 12.1

Input: For C[C@H]1[C@H](N)CN1c1nc2c(cc1F)c(=O)c(C(=O)O)cn2C1CC1 , write its AUC.
Output: 27.2

Input: For C[C@H]1[C@H](N)CN1c1c(F)cc2c(=O)c(C(=O)O)cn(C3CC3)c2c1F , write its AUC.
Output: 24.5

Input: For C[C@H]1N(c2cc3c(cc2F)c(=O)c(C(=O)O)cn3C2CC2)C[C@]1(C)N , write its AUC.
Output: 3.8

A. C[C@H]1[C@H](N)CN1c1cc2c(cc1F)c(=O)c(C(=O)O)cn2C1CC1
B. CCNC[C@H]1CN(c2cc3c(cc2F)c(=O)c(C(=O)O)cn3C2CC2)[C@@H]1C
C. CN[C@H]1CN(c2c(F)cc3c(=O)c(C(=O)O)cn(C4CC4)c3c2F)[C@@H]1C
Input: Give the ascending ranking of the items by reported AUC. Give the order by naming the labels one after another as requested.
Output: B, A, C
(B: 3.2 µg·h/mL, A: 9.2 µg·h/mL, C: 20.8 µg·h/mL)

====

- System: Morganella morganii
- testMethodNotes: In vitro minimum inhibitory concentration for Morganella morganii ATCC 8019
- Type: functional
endpointLabel: MIC (µg/mL)

Consider the reported MIC for these compounds:
Input: For C[C@@H]1[C@@H](N(C)C)CN1c1c(F)cc2c(=O)c(C(=O)O)cn(C3CC3)c2c1F , write its MIC.
Output: 0.25

Input: For C[C@H]1[C@H](N)CN1c1c(F)cc2c(=O)c(C(=O)O)cn(C3CC3)c2c1F , write its MIC.
Output: 0.03

Input: For C[C@H]1[C@H](N)CN1c1cc2c(cc1F)c(=O)c(C(=O)O)cn2C(C)(C)C , write its MIC.
Output: 0.25

a. CN[C@H]1CN(c2cc3c(cc2F)c(=O)c(C(=O)O)cn3C2CC2)[C@@H]1C
b. C[C@H]1[C@H](N)CN1c1c(F)c(N)c2c(=O)c(C(=O)O)cn(C3CC3)c2c1F
Input: Of a versus b , which is the one with smaller reported MIC? Mark your selection by writing its label.
Output: b

====

- testMethodNotes: HPLC capacity factor (k')
- Assay type: ADME
endpointLabel: Log k'

Consider the reported Log k' for these molecules:
Input: For CC1(N)CN(c2c(F)cc3c(=O)c(C(=O)O)cn(C(C)(C)C)c3c2F)C1 , write its Log k'.
Output: 0.1751

Input: For C[C@H]1[C@H](N)CN1c1c(F)cc2c(=O)c(C(=O)O)cn(CCF)c2c1Cl , write its Log k'.
Output: 0.0166

P. C[C@H]1[C@H](N)CN1c1c(F)cc2c(=O)c(C(=O)O)cn(CCF)c2c1F
Q. CCNC1CN(c2c(F)cc3c(=O)c(C(=O)O)cn(C4CC4)c3c2F)C1
R. C[C@H]1[C@H](N)CN1c1c(F)cc2c(=O)c(C(=O)O)cn(C(C)(C)C)c2c1F
Input: Hey, quick one: sort these by Log k', largest value first please. Give the order by naming the labels one after another as requested.
Output: R, Q, P
